- System under test: Sodium-dependent dopamine transporter (Homo sapiens)
- Sequence (Q01959 whole entry): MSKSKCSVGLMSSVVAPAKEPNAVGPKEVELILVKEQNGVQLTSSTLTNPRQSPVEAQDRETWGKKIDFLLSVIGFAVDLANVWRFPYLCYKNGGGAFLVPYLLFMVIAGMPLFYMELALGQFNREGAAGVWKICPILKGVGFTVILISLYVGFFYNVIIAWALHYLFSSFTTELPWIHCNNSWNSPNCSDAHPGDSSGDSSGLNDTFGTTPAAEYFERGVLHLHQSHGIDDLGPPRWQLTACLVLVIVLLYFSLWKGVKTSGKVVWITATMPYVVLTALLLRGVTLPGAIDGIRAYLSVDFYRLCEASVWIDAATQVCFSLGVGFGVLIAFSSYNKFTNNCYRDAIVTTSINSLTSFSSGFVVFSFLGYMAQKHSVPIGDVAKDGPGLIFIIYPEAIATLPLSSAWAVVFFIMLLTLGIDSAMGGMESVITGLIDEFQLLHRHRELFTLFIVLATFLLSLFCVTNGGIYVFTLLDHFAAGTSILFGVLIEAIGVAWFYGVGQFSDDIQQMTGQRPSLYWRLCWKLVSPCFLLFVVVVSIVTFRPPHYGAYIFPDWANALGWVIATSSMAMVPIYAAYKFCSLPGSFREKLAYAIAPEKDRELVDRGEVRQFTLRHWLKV
pKi: −log10 of the molar value.
Short version: pKi at least 6 is label 1, less is label 0.

Reference set (2 entries):
| Substance smiles | Label class |
| --- | --- |
| OC1(c2ccc(Cl)c(C(F)(F)F)c2)CCN(CCCCC(c2ccc(F)cc2)c2ccc(F)cc2)CC1 | label 1 |
| COc1ccc(N(CCCCN2CCC(O)(c3ccc(Cl)c(C(F)(F)F)c3)CC2)c2ccc(OC)cc2)cc1 | label 1 |

Lookup: Textbook exercise: given the entry "OC1(c2ccc(Cl)c(C(F)(F)F)c2)CCN(CCCCN(c2ccc(F)cc2)c2ccc(F)cc2)CC1" , state whether its pKi is greater than or equal to 6.
Found: label 0

Lookup: # repeat for "OC1(c2ccc(Cl)c(C(F)(F)F)c2)CCN(CCCC(c2ccc(F)cc2)c2ccc(F)cc2)CC1"
Found: label 0

Lookup: // same read-out, input: "OC1(c2ccc(Cl)c(C(F)(F)F)c2)CCN(CCCC(c2ccccc2)c2ccccc2)CC1"
Found: label 1
